# Test system: Colo 320
# runDescription: Antiproliferative MTT assay, 72 h
# Assay type: cell-based
# studyConditions: Homo sapiens, 6 × 10^3 cells/well, resistant colon adenocarcinoma
recordedEndpoint: pIC50
// returns pIC50 (minus log10 of molar concentration), number only

Solved cases (2 shown):
// lookup pIC50 | system=Colo 320 | key= COC(=O)C[C@@](C)(O)CC(=O)O[C@@H]1C[C@]2(C)C3=C(C(=O)C[C@H]2C(C)(C)[C@H]1OC(C)=O)[C@]1(C)CC[C@H]([C@H](C)CCC(=O)O)[C@@]1(C)CC3 [Compound 8, pholiol S]
4.16

Can you look up pIC50 on Colo 320 for COC(=O)CC(C)(O)CC(=O)OC1C(O)CC2(C)C3=C(C(=O)CC2C1(C)C)C1(C)CCC(C(C)CCC(=O)C(C)(C)O)C1(C)CC3 (stereo not drawn) [Compound 1, pholiol L] ?
4.55

Read the next record carefully.
Query for Colo 320: what pIC50 does the record show for COc1cccc2c1C(=O)c1c(O)c3c(c(O)c1C2=O)C[C@@](O)(C(=O)CO)C[C@@H]3O[C@H]1C[C@H](N)[C@H](O)[C@H](C)O1 [Dox, doxorubicin, reference compound] ?
6.60
